substrate: vinyl propionate; details: pH 7; 25 °C
Please go through the items and note down their Km.
Answers are plain numbers, in mM.

Kindly give each listed record's Km.
1. unnamed (protein) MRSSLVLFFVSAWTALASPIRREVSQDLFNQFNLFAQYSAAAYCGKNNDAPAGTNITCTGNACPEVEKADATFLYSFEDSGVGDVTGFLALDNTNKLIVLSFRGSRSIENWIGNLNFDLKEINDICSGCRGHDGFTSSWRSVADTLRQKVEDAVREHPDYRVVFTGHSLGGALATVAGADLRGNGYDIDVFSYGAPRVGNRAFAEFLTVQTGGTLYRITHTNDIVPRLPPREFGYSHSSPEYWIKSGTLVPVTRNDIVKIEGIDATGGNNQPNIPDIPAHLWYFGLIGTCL
2. unnamed (protein) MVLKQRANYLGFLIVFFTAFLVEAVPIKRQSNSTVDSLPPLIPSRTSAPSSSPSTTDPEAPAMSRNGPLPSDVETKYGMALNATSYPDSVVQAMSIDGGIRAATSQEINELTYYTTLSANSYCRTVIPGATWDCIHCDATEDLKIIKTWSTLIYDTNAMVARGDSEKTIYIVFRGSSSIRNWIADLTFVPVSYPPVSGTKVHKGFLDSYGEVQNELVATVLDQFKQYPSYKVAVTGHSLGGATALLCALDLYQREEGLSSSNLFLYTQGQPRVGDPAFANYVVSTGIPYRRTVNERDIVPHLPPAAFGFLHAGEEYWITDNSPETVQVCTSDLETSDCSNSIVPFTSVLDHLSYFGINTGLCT
3. unnamed (protein) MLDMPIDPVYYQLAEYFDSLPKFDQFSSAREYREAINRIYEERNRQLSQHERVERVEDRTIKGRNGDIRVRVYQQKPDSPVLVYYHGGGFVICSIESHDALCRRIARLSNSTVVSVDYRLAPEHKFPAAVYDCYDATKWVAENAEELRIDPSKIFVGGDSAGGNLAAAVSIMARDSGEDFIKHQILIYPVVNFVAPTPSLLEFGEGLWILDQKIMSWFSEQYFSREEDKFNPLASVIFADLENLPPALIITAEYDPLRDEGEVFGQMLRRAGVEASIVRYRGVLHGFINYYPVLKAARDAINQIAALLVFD
4. unnamed (protein) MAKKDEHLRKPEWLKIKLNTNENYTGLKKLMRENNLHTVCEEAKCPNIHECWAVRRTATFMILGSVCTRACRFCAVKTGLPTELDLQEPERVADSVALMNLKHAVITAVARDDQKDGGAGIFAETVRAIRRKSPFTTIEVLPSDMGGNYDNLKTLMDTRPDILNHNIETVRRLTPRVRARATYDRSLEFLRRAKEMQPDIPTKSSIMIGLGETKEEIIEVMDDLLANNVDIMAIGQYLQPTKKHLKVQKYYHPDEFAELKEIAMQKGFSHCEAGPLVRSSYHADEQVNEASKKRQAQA

[100, 35, 7, 75]
